- protocolNotes: Plasma protein binding in Cynomolgus monkey at 1 uM incubated for 30 mins
- Format: ADME, cell-free, Macaca fascicularis
- conditionParameters: read-out: PPB (converted)
quantityKind: fraction unbound at 0.5 h, 1 µM

INSERT INTO assay_data (smilesentry, quantitykind, recordedresult) VALUES
  ('Cl.c1ccc2c(c1)nnn2CCCCN1CCN(c2nsc3ccccc23)CC1', 'fraction unbound at 0.5 h, 1 µM', 0.006);

---

- protocolNotes: Tmax in male Sprague-Dawley rat at 10 mg/kg, po qd treated for 13 weeks consecutively measured after recovery period on day 91 by UP/LC/MS/MS analysis
- Type: ADME, organism-based
- conditionParameters: in vivo, time 91 day
quantityKind: Tmax (h)

INSERT INTO measurements (smilesentry, quantitykind, recordedresult) VALUES
  ('Cl.c1ccc2c(c1)nnn2CCCCN1CCN(c2nsc3ccccc23)CC1', 'Tmax', 1.3);
